- Species on record: Homo sapiens
- experiment.description: Binding affinity to human telomeric 5'-FAMd(G3[T2AG3]3)-TAMRA-3' assessed as melting temperature at 0.5 uM by FRET assay
This listing pairs compounds with measured ΔTm.
measured.endpoint: ΔTm

smiles_input=N=C(N)NCCn1cc(-c2ccc3ccc4ccc(-c5cn(CCNC(=N)N)nn5)nc4c3n2)nn1 value_observed="11 °C"
smiles_input=NCCCCn1cc(-c2ccc3ccc4ccc(-c5cn(CCCCN)nn5)nc4c3n2)nn1 value_observed="10.1 °C"
smiles_input=NCCCn1cc(-c2ccc3ccc4ccc(-c5cn(CCCN)nn5)nc4c3n2)nn1 value_observed="10.3 °C"
smiles_input=CC(C)/N=C(/NCCCCn1cc(-c2ccc3ccc4ccc(-c5cn(CCCCN/C(=N\C(C)C)NC(C)C)nn5)nc4c3n2)nn1)NC(C)C value_observed="5.1 °C"

* * *

- experiment.description: Binding affinity to human telomeric 5'-biotin-d[T7(T2AG3)4]-3' assessed as dissociation constant (KD) by surface plasmon resonance assay
pKd: −log10 of the molar value.
This listing pairs compounds with measured pKd.
measured.endpoint: pKd

smiles_input=N=C(N)NCCCCn1cc(-c2ccc3ccc4ccc(-c5cn(CCCCNC(=N)N)nn5)nc4c3n2)nn1 value_observed=7.21
smiles_input=NCCCn1cc(-c2ccc3ccc4ccc(-c5cn(CCCN)nn5)nc4c3n2)nn1 value_observed=7.12
smiles_input=CC(C)/N=C(/NCCCCn1cc(-c2ccc3ccc4ccc(-c5cn(CCCCN/C(=N\C(C)C)NC(C)C)nn5)nc4c3n2)nn1)NC(C)C value_observed=6.75
smiles_input=NCCCCn1cc(-c2ccc3ccc4ccc(-c5cn(CCCCN)nn5)nc4c3n2)nn1 value_observed=6.94
smiles_input=CC(C)/N=C(/NCCn1cc(-c2ccc3ccc4ccc(-c5cn(CCN/C(=N\C(C)C)NC(C)C)nn5)nc4c3n2)nn1)NC(C)C value_observed=6.25

* * *

This listing pairs compounds with measured ΔTm.
- Organism: Homo sapiens
- experiment.description: Binding affinity to c-KIT G-quadruplex 5'-FAM-G3CG3CGCGAG3AG4-TAMRA-3' (unknown origin) assessed as melting temperature at 1 uM by FRET assay
measured.endpoint: ΔTm (°C)

smiles_input=NCCCCn1cc(-c2ccc3ccc4ccc(-c5cn(CCCCN)nn5)nc4c3n2)nn1 relation_sign== value_observed=13.6
smiles_input=N=C(N)NCCCCn1cc(-c2ccc3ccc4ccc(-c5cn(CCCCNC(=N)N)nn5)nc4c3n2)nn1 relation_sign== value_observed=16.8
smiles_input=NCCCn1cc(-c2ccc3ccc4ccc(-c5cn(CCCN)nn5)nc4c3n2)nn1 relation_sign== value_observed=11.8
smiles_input=NCCn1cc(-c2ccc3ccc4ccc(-c5cn(CCN)nn5)nc4c3n2)nn1 relation_sign== value_observed=4.9
smiles_input=C[n+]1ccc(-c2c3nc(c(-c4cc[n+](C)cc4)c4ccc([nH]4)c(-c4cc[n+](C)cc4)c4ccc([nH]4)c(-c4cc[n+](C)cc4)c4nc2C=C4)C=C3)cc1 relation_sign=> value_observed=25
smiles_input=CC(C)/N=C(/NCCCCn1cc(-c2ccc3ccc4ccc(-c5cn(CCCCN/C(=N\C(C)C)NC(C)C)nn5)nc4c3n2)nn1)NC(C)C relation_sign== value_observed=13.9
smiles_input=N=C(N)NCCCn1cc(-c2ccc3ccc4ccc(-c5cn(CCCNC(=N)N)nn5)nc4c3n2)nn1 relation_sign== value_observed=16.1
smiles_input=N=C(N)NCCn1cc(-c2ccc3ccc4ccc(-c5cn(CCNC(=N)N)nn5)nc4c3n2)nn1 relation_sign== value_observed=13.9
smiles_input=CC(C)/N=C(/NCCCn1cc(-c2ccc3ccc4ccc(-c5cn(CCCN/C(=N\C(C)C)NC(C)C)nn5)nc4c3n2)nn1)NC(C)C relation_sign== value_observed=12
smiles_input=CC(C)/N=C(/NCCn1cc(-c2ccc3ccc4ccc(-c5cn(CCN/C(=N\C(C)C)NC(C)C)nn5)nc4c3n2)nn1)NC(C)C relation_sign== value_observed=10.4

* * *

- Species: Homo sapiens
- experiment.description: Binding affinity to hairpin 5'-FAM-TATAGCTATAT7ATAGCTATA-TAMRA-3' (unknown origin) assessed as melting temperature at 0.5 uM by FRET assay
measured.endpoint: ΔTm (°C)

smiles_input=C[n+]1ccc(-c2c3nc(c(-c4cc[n+](C)cc4)c4ccc([nH]4)c(-c4cc[n+](C)cc4)c4ccc([nH]4)c(-c4cc[n+](C)cc4)c4nc2C=C4)C=C3)cc1 measured_endpoint=ΔTm value_observed=9.3
smiles_input=CC(C)/N=C(/NCCCCn1cc(-c2ccc3ccc4ccc(-c5cn(CCCCN/C(=N\C(C)C)NC(C)C)nn5)nc4c3n2)nn1)NC(C)C measured_endpoint=ΔTm value_observed=0.8
smiles_input=NCCn1cc(-c2ccc3ccc4ccc(-c5cn(CCN)nn5)nc4c3n2)nn1 measured_endpoint=ΔTm value_observed=0.4
smiles_input=CC(C)/N=C(/NCCn1cc(-c2ccc3ccc4ccc(-c5cn(CCN/C(=N\C(C)C)NC(C)C)nn5)nc4c3n2)nn1)NC(C)C measured_endpoint=ΔTm value_observed=0.7
smiles_input=N=C(N)NCCCn1cc(-c2ccc3ccc4ccc(-c5cn(CCCNC(=N)N)nn5)nc4c3n2)nn1 measured_endpoint=ΔTm value_observed=1.6
smiles_input=N=C(N)NCCn1cc(-c2ccc3ccc4ccc(-c5cn(CCNC(=N)N)nn5)nc4c3n2)nn1 measured_endpoint=ΔTm value_observed=1.2
smiles_input=NCCCn1cc(-c2ccc3ccc4ccc(-c5cn(CCCN)nn5)nc4c3n2)nn1 measured_endpoint=ΔTm value_observed=1.1
smiles_input=NCCCCn1cc(-c2ccc3ccc4ccc(-c5cn(CCCCN)nn5)nc4c3n2)nn1 measured_endpoint=ΔTm value_observed=1
smiles_input=CC(C)/N=C(/NCCCn1cc(-c2ccc3ccc4ccc(-c5cn(CCCN/C(=N\C(C)C)NC(C)C)nn5)nc4c3n2)nn1)NC(C)C measured_endpoint=ΔTm value_observed=0.7
smiles_input=N=C(N)NCCCCn1cc(-c2ccc3ccc4ccc(-c5cn(CCCCNC(=N)N)nn5)nc4c3n2)nn1 measured_endpoint=ΔTm value_observed=1.7

* * *

- Organism: Homo sapiens
- experiment.description: Binding affinity to c-KIT G-quadruplex 5'-FAM-G3CG3CGCGAG3AG4-TAMRA-3' (unknown origin) assessed as melting temperature at 2 uM by FRET assay
measured.endpoint: ΔTm

smiles_input=NCCCCn1cc(-c2ccc3ccc4ccc(-c5cn(CCCCN)nn5)nc4c3n2)nn1 measured_endpoint=ΔTm value_observed="15.2 °C"
smiles_input=N=C(N)NCCCn1cc(-c2ccc3ccc4ccc(-c5cn(CCCNC(=N)N)nn5)nc4c3n2)nn1 measured_endpoint=ΔTm value_observed="18.4 °C"
smiles_input=CC(C)/N=C(/NCCn1cc(-c2ccc3ccc4ccc(-c5cn(CCN/C(=N\C(C)C)NC(C)C)nn5)nc4c3n2)nn1)NC(C)C measured_endpoint=ΔTm value_observed="12.5 °C"
smiles_input=CC(C)/N=C(/NCCCn1cc(-c2ccc3ccc4ccc(-c5cn(CCCN/C(=N\C(C)C)NC(C)C)nn5)nc4c3n2)nn1)NC(C)C measured_endpoint=ΔTm value_observed="14.6 °C"
smiles_input=N=C(N)NCCCCn1cc(-c2ccc3ccc4ccc(-c5cn(CCCCNC(=N)N)nn5)nc4c3n2)nn1 measured_endpoint=ΔTm value_observed="18.5 °C"
smiles_input=NCCCn1cc(-c2ccc3ccc4ccc(-c5cn(CCCN)nn5)nc4c3n2)nn1 measured_endpoint=ΔTm value_observed="13.9 °C"
smiles_input=N=C(N)NCCn1cc(-c2ccc3ccc4ccc(-c5cn(CCNC(=N)N)nn5)nc4c3n2)nn1 measured_endpoint=ΔTm value_observed="16.4 °C"
smiles_input=CC(C)/N=C(/NCCCCn1cc(-c2ccc3ccc4ccc(-c5cn(CCCCN/C(=N\C(C)C)NC(C)C)nn5)nc4c3n2)nn1)NC(C)C measured_endpoint=ΔTm value_observed="15.9 °C"
smiles_input=NCCn1cc(-c2ccc3ccc4ccc(-c5cn(CCN)nn5)nc4c3n2)nn1 measured_endpoint=ΔTm value_observed="6.2 °C"

* * *

- Organism: Homo sapiens
- experiment.description: Ratio of Kd for c-KIT G-quadruplex 5'-biotin-d[T9G3CG3CGCGAG3AG4]-3' (unknown origin) to Kd for human telomeric 5'-biotin-d[T7(T2AG3)4]-3'
This listing pairs compounds with measured Ratio.
measured.endpoint: Ratio

smiles_input=NCCCn1cc(-c2ccc3ccc4ccc(-c5cn(CCCN)nn5)nc4c3n2)nn1 value_observed=2
smiles_input=NCCCCn1cc(-c2ccc3ccc4ccc(-c5cn(CCCCN)nn5)nc4c3n2)nn1 value_observed=2
smiles_input=N=C(N)NCCCCn1cc(-c2ccc3ccc4ccc(-c5cn(CCCCNC(=N)N)nn5)nc4c3n2)nn1 value_observed=2
smiles_input=CC(C)/N=C(/NCCn1cc(-c2ccc3ccc4ccc(-c5cn(CCN/C(=N\C(C)C)NC(C)C)nn5)nc4c3n2)nn1)NC(C)C value_observed=13
smiles_input=N=C(N)NCCCn1cc(-c2ccc3ccc4ccc(-c5cn(CCCNC(=N)N)nn5)nc4c3n2)nn1 value_observed=2
smiles_input=CC(C)/N=C(/NCCCCn1cc(-c2ccc3ccc4ccc(-c5cn(CCCCN/C(=N\C(C)C)NC(C)C)nn5)nc4c3n2)nn1)NC(C)C value_observed=2
smiles_input=N=C(N)NCCn1cc(-c2ccc3ccc4ccc(-c5cn(CCNC(=N)N)nn5)nc4c3n2)nn1 value_observed=2
smiles_input=NCCn1cc(-c2ccc3ccc4ccc(-c5cn(CCN)nn5)nc4c3n2)nn1 value_observed=2
smiles_input=CC(C)/N=C(/NCCCn1cc(-c2ccc3ccc4ccc(-c5cn(CCCN/C(=N\C(C)C)NC(C)C)nn5)nc4c3n2)nn1)NC(C)C value_observed=13
